From: paper PMC8781988

molecular target: T. congolense sialidase (EC 3.2.1.18); construct: native bloodstream-form enzyme, isolated and partially purified on a DEAE cellulose column; assay: enzyme inhibition kinetics (fetuin substrate, thiobarbituric acid assay, double reciprocal plot) with partially purified enzyme
observable: Ki
Give the value; after it, write the unit.

Please look up its Ki: Oc1cc(O)cc(O)c1
181 nM
